Below is a list of entries, each paired with its recorded pIC50 value.
System: Human immunodeficiency virus 1
Method: Antiviral activity against HIV-1 Bal infected in human MAGI-CCR5 cells assessed as reduction in viral infection after 48 hrs by fluorescence based beta-galactosidase reporter gene assay
Type: functional, organism-based
Run parameters: Human immunodeficiency virus 1, Bal, MAGI-CCR5, 48 h
pIC50: −log10 of the molar value.
Result type: pIC50

line_notation=COc1cccc(CN2CCc3ccc(-c4ccc5ccn(Cc6cccc(C(=O)O)c6)c5c4)cc32)c1 sign_qualifier== obs_value=5.72
line_notation=O=C(O)c1cccc(Cn2ccc3ccc(-c4ccc5ccn(Cc6cccc(OC(F)(F)F)c6)c5c4)cc32)c1 sign_qualifier== obs_value=5.85
line_notation=Cc1ccc(S(=O)(=O)n2ccc3ccc(-c4ccc5ccn(Cc6cccc(C(=O)O)c6)c5c4)cc32)cc1 sign_qualifier== obs_value=6.10
line_notation=COc1cccc(Cn2ccc3ccc(-c4ccc5cn(Cc6cccc(C(=O)O)c6)nc5c4)cc32)c1 sign_qualifier== obs_value=5.24
line_notation=COC(=O)c1cc(Cn2ccc3ccc(-c4ccc5ccn(Cc6cccc(C(=O)O)c6)c5c4)cc32)cc(C(=O)OC)c1 sign_qualifier== obs_value=6.22
line_notation=Cn1ncc2ccc(-c3ccc4cnn(Cc5ccc(F)c(C(=O)O)c5)c4c3)cc21 sign_qualifier=< obs_value=4.70
line_notation=COc1cccc(CNc2cccc(-c3ccc4ccn(Cc5cccc(C(=O)O)c5)c4c3)c2)c1 sign_qualifier=< obs_value=4.70
line_notation=Cn1ccc2ccc(-c3ccc4ccn(Cc5cc(F)cc(C(=O)O)c5)c4c3)cc21 sign_qualifier== obs_value=5.09
line_notation=COC(=O)c1cccc(Cn2ccc3ccc(-c4ccc5cnn(Cc6cccc(C(=O)O)c6)c5c4)cc32)c1 sign_qualifier== obs_value=5.51
